system: SARS-CoV-2 Spike protein (SARS-CoV-2, UniProt P0DTC2 14-1208)
experimental.protocol: HT-SPR (Carterra LSA), mAb coupled to chip, Spike in solution, 1:1 Langmuir fit
property.measured: koff

Exam item: Requested field: koff. Item: mAb 1585 (antibody, V domains shown, human IgG1) VH: QVQLVESGGGVVQPGRSLRLSCAASGFTFSRFTLHWVRQAPGKGLEWVAVISYDGSNKYYADSVKGRFTISRDNSKSTLYLQMNSLRAEDTGVYYCARDPSTVTGYFDYWGQGTLVTVSS VL: SYVLTQPPSVSVAPGKTAKISCGGDSIGSKSVHWYQQKPGQAPVLVIYYDNDRPSGIPERFSGSNSGNTATLTISRVEAGDEADYYCQVWDIGVVFGGGTKLTVLG
Marked response: ≤ 1e-05 s⁻¹
